Test system: HCT116-MTAP-KO
Test summary: Cell killing in HCT116 isogenic pair (Cell Titer-Glo viability), MTAP knock-out cells
Type: cell-based, human
Stated conditions: Homo sapiens, HCT-116, 144 h, 6 days incubation, 0-10 μM, * = more than 50% viability inhibition at tested concentration without a full curve
IC50 for assorted compounds

[
  {
    "Cpd smiles": "Cn1ncnc1-c1ccc(CN(C(=O)c2cc3nc(N)c4c(c3[nH]2)COC4)[C@@H]2CCCc3cccnc32)nc1",
    "Relation qualifier": "=",
    "IC50 / nM": 96
  },
  {
    "Cpd smiles": "CC(=O)N1CC[C@@H](N(C)C(=O)c2cc3nc(N)c4c(c3[nH]2)COC4)c2ccc(C(F)(F)F)cc21",
    "Relation qualifier": "=",
    "IC50 / nM": 29
  },
  {
    "Cpd smiles": "C[C@H](c1cnccn1)N(Cc1ncc(Br)cc1F)C(=O)c1cc2nc(N)c3c(c2[nH]1)COC3",
    "Relation qualifier": "=",
    "IC50 / nM": 17
  },
  {
    "Cpd smiles": "N#Cc1cc(F)c(CN(C(=O)c2cc3nc(N)c4c(c3[nH]2)COC4)[C@@H]2CCCc3cccnc32)c(F)c1",
    "Relation qualifier": "<",
    "IC50 / nM": 1.5
  },
  {
    "Cpd smiles": "C[C@H](c1c(F)cc(Br)cc1F)N(C)C(=O)c1cc2nc(N)c3c(c2[nH]1)COC3",
    "Relation qualifier": "=",
    "IC50 / nM": 46
  },
  {
    "Cpd smiles": "C[C@H](c1ncc(C2CC2)cc1F)N(C)C(=O)c1cc2nc(N)c3c(c2[nH]1)COC3",
    "Relation qualifier": "=",
    "IC50 / nM": 9.8
  },
  {
    "Cpd smiles": "Nc1nc2cc(C(=O)N(Cc3ncc(C4CC4)cc3F)C3CCCC3)[nH]c2c2c1COC2",
    "Relation qualifier": "=",
    "IC50 / nM": 17
  }
]
